Reported pIC50 on Receptor-type tyrosine-protein kinase FLT3 (Homo sapiens) for assorted compounds, compiled from publications.
pIC50: −log10 of the molar value.

# annotated cases, reported pIC50 shown
Prompt line: Dear colleague, I am looking for the recorded pIC50 of the following compound: Cc1nn(C)cc1Nc1ncc(Cl)c(NC2CCN(c3ccc(C#N)cn3)CC2)n1
Response line: 8.05

Prompt line: Follow-up item: COC[C@H](C)Nc1ncc2c(-c3cnn(C4COC4)c3)cc(C3CCC(F)(F)CC3)n2n1
Response line: 6.00 to 7.00

Prompt line: Follow-up item: Oc1ccc(/C=C/c2cc(-c3ccc(Cl)cc3)n[nH]2)cc1
Response line: 6.30 to 7.30

Prompt line: Follow-up item: COC[C@H](C)Nc1ncc2c(O[C@@H]3CCOC3)ncc([C@H]3CC[C@H](O)CC3)c2n1
Response line: 5.00 to 6.00

New cases:
Prompt line: Dear colleague, I am looking for the recorded pIC50 of the following compound: Cc1cc(C)c2[nH]ccc2c1-c1nc(C(N)=O)c(-c2ccc(N3CCNC(C)(C)C3)cc2)o1
Response line: 8.86

Prompt line: Follow-up item: CNC(=O)c1cc(NC(=O)Nc2ccc(Oc3cc(NC)ncn3)cc2)cc(C(F)(F)F)c1
Response line: 6.38

Prompt line: Follow-up item: FC(F)(F)c1ccccc1Nc1n[nH]c2c1Cc1sccc1-2
Response line: < 6.00

Prompt line: Follow-up item: COC[C@H](C)Nc1ncc2c(OC3CCN(c4ncccn4)CC3)ncc([C@H]3CC[C@H](O)CC3)c2n1
Response line: 5.00 to 6.00

Prompt line: Follow-up item: CCCNc1nc2ccccc2c2c(=O)c3ccc(Cl)cc3sc12
Response line: < 6.00

Prompt line: Follow-up item: c1cc2c(s1)Cc1c(-c3ccc(N4CCCC4)cc3)n[nH]c1-2
Response line: 6.30 to 7.00

Prompt line: Follow-up item: CNCCCNc1nc2ccccc2c2c(=O)c3cc(OC)ccc3sc12
Response line: 6.00 to 6.30

Prompt line: Follow-up item: O=C1Nc2cc(NC(=O)c3cccn(-c4cccc(Cl)c4)c3=O)ccc2/C1=C/c1ccc[nH]1
Response line: 7.04

Prompt line: Follow-up item: COC[C@H](C)Nc1ncc2c([C@H]3CC[C@@H](C(=O)N4CCOCC4)CC3)cc([C@H]3CC[C@H](O)CC3)n2n1
Response line: 5.00 to 6.00

Prompt line: Follow-up item: CCc1nc2c(N)ncc(-c3ccc(N4CCC(N5CCN(C)CC5)CC4)c(OC)c3)c2nc1N[C@@H]1CC[C@H](O)C1
Response line: ≥ 8.00

Prompt line: Follow-up item: COC[C@H](C)Nc1ncc2c(-c3ccnc(C)c3)cc(C3CCC4(CC3)NC(=O)NC4=O)n2n1 (mixture of isomers)
Response line: 5.00 to 6.00

Prompt line: Follow-up item: CN1CCC[C@@H]1c1cc2cnc(NC(=O)c3ccc(-c4cn[nH]c4)cc3)cc2[nH]1
Response line: 6.56

Prompt line: Follow-up item: CCN1CCN(c2ccc3[nH]c(-c4cc(-c5ccc(NC(=O)NC(C)(C)C)cc5)[nH]n4)nc3c2)CC1
Response line: 5.30 to 6.30

Prompt line: Follow-up item: COC[C@H](C)Nc1ncc2c(-c3cnn(C4COC4)c3)cc([C@H]3CC[C@@](O)(C(C)C)CC3)n2n1
Response line: 6.00 to 7.00

Prompt line: Follow-up item: Brc1ccc(-c2n[nH]c3c2Cc2sc(Br)cc2-3)cn1
Response line: 6.30 to 7.00

Prompt line: Follow-up item: CCN(CC)CCOc1ccc2c(n1)sc1nc(-c3ccc(NC(=O)Nc4cc(C(C)(C)C)on4)cc3)cn12
Response line: 8.02

Prompt line: Follow-up item: CCc1nc2c(N)ncc(-c3cnn(C4CCN(C5CCCCC5)CC4)c3)c2nc1N[C@@H]1CC[C@H](O)C1
Response line: ≥ 8.00

Prompt line: Follow-up item: O=c1c2cc(C(F)(F)F)ccc2sc2c(NCCCNCCO)nc3ccccc3c12
Response line: < 6.00

Prompt line: Follow-up item: C[C@@H](CC(F)(F)F)Nc1ncc2c([C@H]3CC[C@@H](C(=O)N4CCOCC4)CC3)cc([C@H]3CC[C@H](O)CC3)n2n1
Response line: ≥ 7.00

Prompt line: Follow-up item: CCN1CCN(c2ccc(-c3cc(-c4ccc(NC(=O)Nc5ccc(Cl)c(C(F)(F)F)c5)cc4)[nH]n3)cc2)CC1
Response line: > 7.30
